experiment_summary: Plasma stability assay, rat plasma
Type: in vitro ADME
particulars: 10 μM, 37° C., 480 min
Reported % remaining at time point is given for each of the following compounds.

Take a look at these entries with their results.
• CCCCCCCCCCCCOC(=O)Oc1ccc2c3c1O[C@H]1C(=O)CC[C@@]4(O)C(C2)N(CC2CC2)CC[C@]314 [Compound 11] = 0.2%
• CCCCCCCCCCCCCCCCCCCCCC(=O)Oc1ccc2c3c1O[C@H]1C(=O)CC[C@@]4(O)C(C2)N(CC2CC2)CC[C@]314 [Compound 51] = 88.2%
• C=C1CC[C@@]2(O)C3Cc4ccc(OC(=O)OCCCCCCCCCC)c5c4[C@@]2(CCN3CC2CC2)[C@H]1O5 [Compound 18] = 0.1%
• C=C1CC[C@@]2(O)C3Cc4ccc(OC(=O)OCCCCCCCC)c5c4[C@@]2(CCN3CC2CC2)[C@H]1O5 [Compound 17] = 0%
• CCCCCCCCCCCCCCCCCCCC(=O)Oc1ccc2c3c1O[C@H]1C(=O)CC[C@@]4(O)C(C2)N(CC2CC2)CC[C@]314 [Compound 50] = 83.3%
• C=C1CC[C@@]2(O)C3Cc4ccc(OC(=O)CCCCCCC/C=C/CCCCCCCC)c5c4[C@@]2(CCN3CC2CC2)[C@H]1O5 [Compound 15] = 52%

Req: Return % remaining at time point for the following compound: C=C1CC[C@@]2(O)C3Cc4ccc(OC(=O)OCCCCCCCCCCCCCCCC)c5c4[C@@]2(CCN3CC2CC2)[C@H]1O5 [Compound 19]
Resp: 43.8%

Req: Return % remaining at time point for the following compound: CCCCCCCCCCCC(=O)OCN1C(=O)CCc2ccc(OCCCCN3CCN(c4cccc(Cl)c4Cl)CC3)cc21 [Aripiprazole Lauroxil, reference compound]
Resp: 76.4%

Req: Return % remaining at time point for the following compound: CCCCCCCCCCCCCCCC(=O)Oc1ccc2c3c1O[C@H]1C(=O)CC[C@@]4(O)C(C2)N(CC2CC2)CC[C@]314 [Compound 55]
Resp: 27.1%

Every entry's value here was drawn from patent US10533015B1.
